conditions: in acetonitrile, 333.2 K
MEASURED_ATTRIBUTE: solubility (mole fraction)

Note solubility (mole fraction) for the compound shown: O=C(O)CC(O)C(=O)O (stereo unspecified) 0.021

====

conditions: in acetonitrile, 323.2 K
MEASURED_ATTRIBUTE: solubility (mole fraction)
Give the figure by itself; no unit, no explanation.

Quick one: give measured solubility (mole fraction) for O=C(O)CC(O)C(=O)O (stereo unspecified) 0.015

====

details: in ethanol, 323.2 K
MEASURED_ATTRIBUTE: solubility (mole fraction)

Supply recorded solubility (mole fraction) for O=C(O)CC(O)C(=O)O (stereo unspecified) here. 0.121

====

details: in isopropanol, 323.2 K
MEASURED_ATTRIBUTE: solubility (mole fraction)
Form: value (number only, do not type unit).

Give me measured solubility (mole fraction), please, for this molecule: O=C(O)CC(O)C(=O)O (stereo unspecified) 0.094
